tested on: NCI-H322M lung; experiment: NCI-60 one-dose screen, 48 h (100 = growth as untreated, 0 = no growth, -100 = all killed); settings: 10 µM unless noted
This is part of a sample that, as a whole, favours compounds with a hit. Of some 83,000 tested, about 20% had one in any assay.
measurement_type: growth (%)

>  <compound>
Clc1ccc(N/N=c2/oc3ccccc3cc2-c2cc3ccccc3[nH]2)cc1

>  <reading_unit>
%

>  <assay_result>
78.6

$$$$
>  <compound>
CCNC(=O)N1CCc2cc(OC)c(OCCc3ccc(OC)cc3)cc2C1c1ccc([N+](=O)[O-])cc1C (stereo unspecified)

>  <reading_unit>
%

>  <assay_result>
45.4

$$$$
>  <compound>
O=S(=O)(NCCCNc1nccc(-c2[nH]c(-c3ccccc3)nc2-c2ccc(Cl)c(O)c2)n1)c1cccc(F)c1

>  <reading_unit>
%

>  <assay_result>
87.9

$$$$
>  <compound>
N#Cc1c(-c2cccs2)cc(-c2cnccn2)nc1SCC(=O)Nc1ccc(Br)cc1

>  <reading_unit>
%

>  <assay_result>
88.5

$$$$
>  <compound>
c1n[nH]cc1-c1nc2ccc3[nH]ncc3c2c2c1CCCC2

>  <reading_unit>
%

>  <assay_result>
31.1

$$$$
>  <compound>
C[C@@H](Nc1c(C#N)cnc2ccc(-c3cnc(Cl)c(NS(C)(=O)=O)c3)cc12)c1ccccc1

>  <reading_unit>
%

>  <assay_result>
12.1

$$$$
>  <compound>
C#Cc1nc(/C=C/C(=O)c2nccn2C)cs1

>  <reading_unit>
%

>  <assay_result>
28.5

$$$$
>  <compound>
CNC(=O)c1cc(-n2ccc3cc(NC(=O)Nc4ccc(N5CCOCC5)c(C(F)(F)F)c4)ccc32)ccn1

>  <reading_unit>
%

>  <assay_result>
75.5

$$$$
>  <compound>
COc1cc(/C=N/NC(=O)c2cn(C3CC3)c3c(OC)c(N4CC5CCCNC5C4)c(F)cc3c2=O)ccc1O (stereo unspecified)

>  <reading_unit>
%

>  <assay_result>
55.4

$$$$
>  <compound>
O=C1[C@H]2Cc3c([nH]c4ccccc34)[C@@H](c3ccc(Br)cc3)N2C(=O)CN1C1CCN(CC2CCCCC2)CC1

>  <reading_unit>
%

>  <assay_result>
16.2

$$$$
>  <compound>
COc1ccc(C(=O)Nc2ncc(Cc3ccccc3Cl)s2)cc1

>  <reading_unit>
%

>  <assay_result>
54.3

$$$$
